Reported melting point by item:

[
  {
    "Compound": "CNC(=O)ON=Cc1nn(-c2c(Cl)cc(C(F)(F)F)cc2Cl)c(N)c1[S+](C)[O-] (stereo not shown)",
    "melting point": "146 to 147 °C"
  },
  {
    "Compound": "COC(=O)ON=Cc1nn(-c2c(Cl)cc(C(F)(F)F)cc2Cl)c(N)c1SC",
    "melting point": "171 to 173 °C"
  },
  {
    "Compound": "CS(=O)(=O)c1c(C(=N)NO)nn(-c2c(Cl)cc(C(F)(F)F)cc2Cl)c1N",
    "melting point": "109 to 111 °C"
  },
  {
    "Compound": "CSc1c(C(=N)NO)nn(-c2c(Cl)cc(C(F)(F)F)cc2Cl)c1N",
    "melting point": "207 to 208 °C"
  }
]

###

Reported melting point by item:

[
  {
    "Compound": "CCNC1(c2c(Cl)cc(C(F)(F)F)cc2Br)NNC(C(=N)NO)=C1[S+](C)[O-] (stereo not drawn)",
    "melting point": "213 to 214 °C"
  },
  {
    "Compound": "CCNc1c([S+](C)[O-])c(C=NO)nn1-c1c(Cl)cc(C(F)(F)F)cc1Cl (stereo not drawn)",
    "melting point": "158 to 161 °C"
  },
  {
    "Compound": "Nc1c(C(F)(F)F)c(C=NO)nn1-c1c(Cl)cc(C(F)(F)F)cc1Cl",
    "melting point": "136 to 146 °C"
  },
  {
    "Compound": "C[S+]([O-])c1c(C(=N)NO)nn(-c2c(Cl)cc(C(F)(F)F)cc2Br)c1N (stereo not drawn)",
    "melting point": "237 to 238 °C"
  },
  {
    "Compound": "CC[S+]([O-])c1c(C=NO)nn(-c2c(Cl)cc(C(F)(F)F)cc2Cl)c1N (stereo not drawn)",
    "melting point": "195 °C"
  },
  {
    "Compound": "CSc1c(C=NO)nn(-c2c(Cl)cc(C(F)(F)F)cc2Cl)c1N(C)C",
    "melting point": "178 to 181 °C"
  },
  {
    "Compound": "N=C(NO)c1nn(-c2c(Cl)cc(C(F)(F)F)cc2Cl)c(N)c1[S+]([O-])CCF (stereo not drawn)",
    "melting point": "212 to 215 °C"
  },
  {
    "Compound": "Cc1ccccc1C(=O)ON=Cc1nn(-c2c(Cl)cc(C(F)(F)F)cc2Cl)c(N)c1[S+](C)[O-] (stereo not drawn)",
    "melting point": "107 to 110 °C"
  },
  {
    "Compound": "CC(C)C(=O)NNC(=N)c1nn(-c2c(Cl)cc(C(F)(F)F)cc2Cl)c(N)c1[S+](C)[O-] (stereo not drawn)",
    "melting point": "118 °C"
  },
  {
    "Compound": "N=C(NO)c1nn(-c2c(Cl)cc(C(F)(F)F)cc2Cl)c(C=O)c1SC(F)(F)F",
    "melting point": "72 to 75 °C"
  },
  {
    "Compound": "CC(C)ON=Cc1nn(-c2c(Cl)cc(C(F)(F)F)cc2Cl)c(N)c1[S+](C)[O-] (stereo not drawn)",
    "melting point": "128 to 130 °C"
  },
  {
    "Compound": "C[S+]([O-])c1c(C(=N)NO)nn(-c2c(Cl)cc(C(F)(F)F)cc2Cl)c1NCCS(=O)(=O)c1ccccc1 (stereo not drawn)",
    "melting point": "131 to 134 °C"
  },
  {
    "Compound": "CS(=O)(=O)c1c(C=NO)nn(-c2c(Cl)cc(C(F)(F)F)cc2Cl)c1N",
    "melting point": "209.5 to 211 °C (dec.)"
  },
  {
    "Compound": "CNc1c([S+](C)[O-])c(C=NO)nn1-c1c(Cl)cc(C(F)(F)F)cc1Cl (stereo not drawn)",
    "melting point": "162 °C"
  },
  {
    "Compound": "CSc1c(C=NO)nn(-c2c(Cl)cc(C(F)(F)F)cc2Cl)c1N",
    "melting point": "179 to 181 °C"
  },
  {
    "Compound": "C[S+]([O-])c1cn(-c2c(Cl)cc(C(F)(F)F)cc2Cl)nc1C=NO (stereo not drawn)",
    "melting point": "239 to 240 °C"
  },
  {
    "Compound": "CCS(=O)(=O)c1c(C(=N)NO)nn(-c2c(Cl)cc(C(F)(F)F)cc2Cl)c1N",
    "melting point": "109 to 111 °C"
  },
  {
    "Compound": "CNc1c([S+](C)[O-])c(C(=N)NO)nn1-c1c(Cl)cc(C(F)(F)F)cc1Cl (stereo not drawn)",
    "melting point": "191 to 192 °C"
  },
  {
    "Compound": "C[S+]([O-])c1c(C(=N)NO)nn(-c2ccc(C(F)(F)F)cc2Cl)c1N (stereo not drawn)",
    "melting point": "238 to 239 °C"
  },
  {
    "Compound": "CON=Cc1nn(-c2c(Cl)cc(C(F)(F)F)cc2Cl)c(N)c1[S+](C)[O-] (stereo not drawn)",
    "melting point": "80 °C"
  },
  {
    "Compound": "CC[S+]([O-])c1c(C=NO)nn(-c2c(Cl)cc(C(F)(F)F)cc2Cl)c1C (stereo not drawn)",
    "melting point": "210 to 213 °C"
  },
  {
    "Compound": "C[S+]([O-])c1c(C=NO)nn(-c2ncc(C(F)(F)F)cc2Cl)c1N (stereo not drawn)",
    "melting point": "195.5 to 196.5 °C"
  },
  {
    "Compound": "CCSc1c(C(=N)NO)nn(-c2c(Cl)cc(C(F)(F)F)cc2Cl)c1N",
    "melting point": "170 to 175 °C"
  },
  {
    "Compound": "CCSc1c(C=NO)nn(-c2c(Cl)cc(C(F)(F)F)cc2Cl)c1C",
    "melting point": "155 to 157 °C"
  },
  {
    "Compound": "CC(=NO)c1nn(-c2c(Cl)cc(C(F)(F)F)cc2Cl)c(N)c1[S+](C)[O-] (stereo not drawn)",
    "melting point": "68 to 71 °C"
  },
  {
    "Compound": "CC(=O)ON=Cc1nn(-c2c(Cl)cc(C(F)(F)F)cc2Cl)c(N)c1[S+](C)[O-] (stereo not drawn)",
    "melting point": "130 to 134 °C"
  },
  {
    "Compound": "N=C(NO)c1nn(-c2c(Cl)cc(C(F)(F)F)cc2Cl)c(C=NO)c1SC(F)(F)F",
    "melting point": "68 to 72 °C"
  },
  {
    "Compound": "CC[S+]([O-])c1c(C(=N)NO)nn(-c2c(Cl)cc(C(F)(F)F)cc2Cl)c1NCC[S+](C)[O-] (stereo not drawn)",
    "melting point": "108 to 109 °C"
  },
  {
    "Compound": "C[S+]([O-])C1=C(N)N(c2c(Br)cc(C(F)(F)F)cc2Br)N(O)C1C(=N)N (stereo not drawn)",
    "melting point": "240 to 241 °C"
  },
  {
    "Compound": "C[S+]([O-])c1c(C(=N)NO)nn(-c2c(Cl)cc(C(F)(F)F)cc2Cl)c1NCC(N)=O (stereo not drawn)",
    "melting point": "119 to 120 °C"
  },
  {
    "Compound": "CONC(=N)c1nn(-c2c(Cl)cc(C(F)(F)F)cc2Cl)c(N)c1[S+](C)[O-] (stereo not drawn)",
    "melting point": "140 to 145 °C"
  },
  {
    "Compound": "CSc1c(C=NOC(C)=O)nn(-c2c(Cl)cc(C(F)(F)F)cc2Cl)c1N",
    "melting point": "205.5 to 206.5 °C"
  },
  {
    "Compound": "Cc1c([S+](C)[O-])c(C=NO)nn1-c1c(Cl)cc(C(F)(F)F)cc1Cl (stereo not drawn)",
    "melting point": "210 to 214 °C"
  }
]

Provenance of the data: patent US6638956B2
